Please respond with reported TGI for every item in the list.
# Tested on: Cancer cell lines
# protocolDetails: Inhibition of human non-small cell lung cancer cells
# Type: functional
# measurementParameters: read-out: pTGI (converted)
Answer in µM, number only, no unit symbol.

(Q) # query: TGI of entry Cc1cn2c(/C=N/NC(=N)N)c(-c3cc(Cl)sc3Cl)nc2s1
(A) 3.63

(Q) Next up: N=C(N)N/N=C/c1c(-c2cc(Cl)sc2Cl)nc2sccn12
(A) 10.7

(Q) Next up: Cc1cc(-c2nc3sccn3c2/C=N/NC(=N)N)c(C)s1
(A) 33.1

(Q) Next up: N=C(N)N/N=C/c1c(-c2ccc(Cl)c([N+](=O)[O-])c2)nc2ccccn12
(A) 3.8

(Q) Next up: N=C(N)N/N=C/c1c(-c2ccsc2)nc2sccn12
(A) 30.2

(Q) Next up: Cc1nn2c(/C=N/NC(=N)N)c(-c3ccc(Cl)c([N+](=O)[O-])c3)nc2s1
(A) 11.5

(Q) Next up: Cc1cc(-c2nc3sc(C)cn3c2/C=N/NC(=N)N)c(C)s1
(A) 25.1

(Q) Next up: COc1cc([N+](=O)[O-])c(OC)cc1-c1nc2sc(Cl)cn2c1/C=N\NC1=NCCN1
(A) 4.79

(Q) Next up: Cc1cn2c(/C=N/Nc3ccccn3)c(-c3ccc(Cl)c([N+](=O)[O-])c3)nc2s1
(A) 30.9

(Q) Next up: Cc1cc(-c2nc3n(c2/C=N/NC(=N)N)CCS3)c(C)s1
(A) 35.5
